system tested: Relaxin-3 receptor 1 (Homo sapiens)
Sequence (Q9NSD7 whole entry): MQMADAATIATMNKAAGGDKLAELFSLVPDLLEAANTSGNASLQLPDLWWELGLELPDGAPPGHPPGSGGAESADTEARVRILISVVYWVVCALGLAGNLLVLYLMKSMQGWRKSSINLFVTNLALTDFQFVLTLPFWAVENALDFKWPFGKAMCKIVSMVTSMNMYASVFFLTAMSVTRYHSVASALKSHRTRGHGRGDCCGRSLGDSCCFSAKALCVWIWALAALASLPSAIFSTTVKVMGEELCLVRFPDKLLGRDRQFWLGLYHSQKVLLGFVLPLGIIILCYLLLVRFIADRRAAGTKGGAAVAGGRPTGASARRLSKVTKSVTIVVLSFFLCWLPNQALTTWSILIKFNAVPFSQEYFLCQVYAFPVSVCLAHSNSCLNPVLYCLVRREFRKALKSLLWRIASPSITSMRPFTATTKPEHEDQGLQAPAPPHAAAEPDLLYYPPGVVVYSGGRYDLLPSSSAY
reported metric: Ki (nM)

[
  {
    "mol": "COc1cc(C)c2[nH]cc(/C=N/NC(=N)NCCc3ccc(C#N)cc3)c2c1",
    "observed": 268
  }
]
